Origin of measurements: paper PMC8343220

Collected Log efficacy ratio KD /EC50 values appear next to each entry.
# Study target: human α1A‐adrenoceptor (Homo sapiens, UniProt P35348)
# Construct: expressed in transfected cells; host or cells: CHO-K1
# Sequence (P35348 whole entry): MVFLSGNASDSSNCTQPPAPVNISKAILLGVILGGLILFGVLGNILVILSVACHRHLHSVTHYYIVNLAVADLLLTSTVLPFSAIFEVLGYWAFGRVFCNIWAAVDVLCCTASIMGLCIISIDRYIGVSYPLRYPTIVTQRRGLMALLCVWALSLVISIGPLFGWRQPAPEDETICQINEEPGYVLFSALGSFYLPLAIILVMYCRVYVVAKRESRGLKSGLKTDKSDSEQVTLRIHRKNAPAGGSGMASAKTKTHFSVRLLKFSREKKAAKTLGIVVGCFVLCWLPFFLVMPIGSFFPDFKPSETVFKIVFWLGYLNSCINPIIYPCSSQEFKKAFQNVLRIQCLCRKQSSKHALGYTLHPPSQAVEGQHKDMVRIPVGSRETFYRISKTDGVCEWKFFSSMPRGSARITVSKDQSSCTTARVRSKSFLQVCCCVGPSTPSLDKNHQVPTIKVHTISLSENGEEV
# Assay procedure: Intracellular free calcium mobilization, CHO‐α1A cells
# Format: cell-based
# Recorded conditions: CHO‐α1A cells; binding KD and calcium EC50
Assay metric: Log efficacy ratio KD /EC50

1) COc1nc(C)nc(Cl)c1N=C1NCCN1 | 1.97
2) Clc1ccc2nsnc2c1NC1=NCCN1 | 1.98
3) CC(CCc1ccc(O)cc1)NCCc1ccc(O)c(O)c1 (stereo not drawn) | 2.04
4) C[C@H](N)[C@H](O)c1cccc(O)c1 | 3.14
5) C1COC(NC(C2CC2)C2CC2)=N1 | 1.19
6) COc1ccc(OC)c(C(O)C(C)N)c1 (stereo not drawn) | 3.43
